Tested on: Vero E6 cells
Test Name: Cytotoxicity on Vero E6 cells
Type: cell-based, African green monkey
Setup Conditions: Chlorocebus sabaeus, Vero C1008; 48 h; reduces growth of Vero E6 by 50% vs untreated controls
pIC50: −log10 of the molar value.
Rule: Met for pIC50 not less than 5, Not met for anything less.

{"Compound String": "Cc1nc2ccccc2n1CCCCCCC[P+](c1ccccc1)(c1ccccc1)c1ccccc1.[I-]", "Discrete Label": "Not met"}
{"Compound String": "Cc1nc2c(n1CCCCCCCCCCC[P+](C1CCCCC1)(C1CCCCC1)C1CCCCC1)C(=O)c1ccccc1C2=O.[I-]", "Discrete Label": "Met"}
{"Compound String": "Cc1nc2c(n1CCCCC[P+](c1ccccc1)(c1ccccc1)c1ccccc1)C(=O)c1ccccc1C2=O.[I-]", "Discrete Label": "Not met"}
{"Compound String": "CCCCCC[P+](CCCCCC)(CCCCCC)CCCCCCCn1c(C)nc2c1C(=O)c1ccccc1C2=O.[I-]", "Discrete Label": "Met"}
{"Compound String": "Cc1nc2c(n1CCC[P+](c1ccccc1)(c1ccccc1)c1ccccc1)C(=O)c1ccccc1C2=O.[I-]", "Discrete Label": "Not met"}

====

Tested on: M. bovis BCG
Type: cell-based, Mycobacterium bovis BCG
Setup Conditions: 0.5× to 2× MIC90, 1.5 h + 30 min dye
Attribute Measured: ROS formation in cultures (CellROX Green)

{"Compound String": "Cc1nc2c(n1CCCCCCCCC[P+](c1ccccc1)(c1ccccc1)c1ccccc1)C(=O)c1ccccc1C2=O.[I-]", "Result": "negligible levels of ROS"}
{"Compound String": "Cc1nc2c(n1CCCCCCCCCCC[P+](c1ccccc1)(c1ccccc1)c1ccccc1)C(=O)c1ccccc1C2=O.[I-]", "Result": "negligible levels of ROS"}
